tested on: H441 lung cancer cells; experiment: Anti-proliferative MTT assay; details: read-out: IC50 (µM) ± SEM H441; MTT, 24 h, n = 3
PROPERTY: IC50 (µM)
Answer in µM, number only, no unit symbol.

The recorded IC50 for entry COc1ccc(C2CC(c3ccc(Cl)cc3Cl)=NN2c2nc(C)c(N=Nc3ccccc3)s2)cc1 (stereo not shown) [Compound 13a] equals 94.4

----------
As shown below, each of these compounds has a reported melting point value.

Examples with answers:
{"COMPOUND": "COc1ccc(C2CC(c3ccc(Cl)cc3Cl)=NN2c2nc(C)c(N=Nc3ccccc3)s2)cc1 (stereo not shown) [Compound 13a]", "RESULT": "168 to 170 °C"}
{"COMPOUND": "COc1ccc(C2CC(c3ccc(Cl)cc3Cl)=NN2c2nc(-c3ccccc3)cs2)cc1OC (stereo not shown)", "RESULT": "120 to 122 °C"}

The recorded melting point for entry COc1ccc(C2CC(c3ccc(Cl)cc3Cl)=NN2c2nc(-c3ccc(Cl)cc3)cs2)cc1OC (stereo not shown) equals 158 to 159 °C

The recorded melting point for entry COc1ccc(C2CC(c3ccc(Cl)cc3Cl)=NN2c2nc(-c3ccccc3)cs2)cc1 (stereo not shown) equals 72 to 75 °C
